Test: Microsomal intrinsic clearance, mouse
Conditions: mouse, microsomes, NADPH-free CLint
READOUT TYPE: microsomal CLint at 1 μM (µL/min/mg)
The response must be a number in µL/min/mg with no trailing unit.

Looking up C[S+]([O-])c1ccc(NC(=O)c2cccc(SCc3ccc(Cl)cc3)c2)cc1 (stereo not shown) , I see its microsomal CLint at 1 μM listed as 58

----------
Target: SIRT2 (Homo sapiens)
Construct: recombinant active enzymes SIRT1, SIRT2, and the catalytically active fragment of SIRT3
Sequence (Q8IXJ6 whole entry, the tested form may be a part): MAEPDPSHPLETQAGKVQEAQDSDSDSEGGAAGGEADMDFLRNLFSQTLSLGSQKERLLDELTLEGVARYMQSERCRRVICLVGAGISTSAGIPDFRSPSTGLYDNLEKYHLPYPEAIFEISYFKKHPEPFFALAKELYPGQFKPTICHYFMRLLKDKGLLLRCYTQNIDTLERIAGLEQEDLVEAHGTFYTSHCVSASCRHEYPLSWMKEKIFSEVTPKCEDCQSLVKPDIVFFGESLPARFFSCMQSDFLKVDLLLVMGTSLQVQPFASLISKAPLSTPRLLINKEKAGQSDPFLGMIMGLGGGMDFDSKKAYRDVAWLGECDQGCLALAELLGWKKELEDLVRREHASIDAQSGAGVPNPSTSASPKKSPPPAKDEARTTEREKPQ
Experiment: Fluor-de-Lys biochemical sirtuin deacetylation assay, SIRT2
Settings: 10 μM
Where a name gives a salt, the structure may show the parent alone.
READOUT TYPE: inhibition at 10 µM
Reply with a number, then the unit it belongs to.

Recorded results for 2 compounds are shown here.
| COMPOUND | READOUT TYPE | READING |
| --- | --- | --- |
| COc1ccc(CSc2cccc(C(=O)Nc3ccc(C#N)cc3)c2)cc1 [Compound 211c] | inhibition at 10 µM | 69% |
| CN(Cc1ccc(C#N)cc1)Cc1cccc(C(=O)Nc2ccc(C#N)cc2)c1 [Compound 225a] | inhibition at 10 µM | 63% |

Entry CN(C(=O)c1cccc(S(=O)(=O)N(C)c2ccc(S(C)(=O)=O)cc2)c1)c1ccc(C#N)cc1F [Compound 203Ak] , inhibition at 10 µM reported as 0%

Quick note, inhibition at 10 µM for CN(C)c1cccc(NC(=O)c2cccc(S(=O)(=O)N3CCCCCC3)c2)c1 [Compound 203j] landed at 61%

inhibition at 10 µM measured on CN(C(=O)c1cncc(CN(Cc2ccc(F)c(F)c2)C2CC2)c1)c1ccc(C#N)cc1 [Compound 225n, hydrochloride] = 0%

Quick note, inhibition at 10 µM for CCCN(CCC)S(=O)(=O)c1cccc(C(=O)Nc2cccc(Br)c2)c1 [Compound 203f] landed at 60%

Short answer for N#Cc1ccc(NC(=O)c2cccc(OCc3ccc(OC(F)(F)F)cc3)c2)cc1 [Compound 216m] : inhibition at 10 µM was 56%

// inhibition at 10 µM value for CN(c1ccc(Br)cc1)S(=O)(=O)c1cccc(C(=O)Nc2ccc(Cl)cc2F)c1 [Compound 203q] : 29%

// recorded inhibition at 10 µM for CC(=O)c1ccc(C(Oc2cccc(C(=O)Nc3ccc(C#N)cc3)c2)C(C)C)cc1 (stereo not shown) [Compound 216Ap] : 44%

Lookup result for COc1ccc(COc2cccc(C(=O)Nc3ccc(C#N)cc3)c2)cc1 [Compound 216c] ; measured inhibition at 10 µM: 40%

response.value for CN(c1ccc(Cl)cc1)S(=O)(=O)c1cc(C(=O)Nc2ccc([S+](C)[O-])cc2)ccn1 (stereo not shown) [Compound 203An] (field: inhibition at 10 µM) = 28%

Record summary for CCC(CC)Oc1cccc(C(=O)Nc2ccc(C#N)cc2)c1 [Compound 216Ao] : reported inhibition at 10 µM = 37%

Reported inhibition at 10 µM of N#Cc1ccc(NC(=O)c2cccc(OCc3ccc(F)cc3)c2)nc1 [Compound 216i] : 15%

Entry CC(=O)c1ccc(C(C)Oc2cccc(C(=O)Nc3ccc(S(C)(=O)=O)cc3)c2)cc1 (stereo not shown) [Compound 216Bb] ; inhibition at 10 µM = 70%

Query C[C@@H](Oc1cccc(/C(N)=N\c2ccc(C#N)cc2)c1)c1ccc(C#N)cc1 [Compound 234c, hydrochloride] yields inhibition at 10 µM of 39%

# inhibition at 10 µM of CC(=O)c1ccc([C@@H](C)Oc2cncc(C(=O)Nc3ccc(C#N)cc3)c2)cc1 [Compound 216An] = 95%
